Hello, the source for this data is the supplement of paper PMC3414501, in case you need it.

Test system: S. cerevisiae NKY1551 his4x/his4B, sporulating
Assay: HIS4 meiotic recombination assay sensitivity score (z-score vs DMSO controls); higher = stronger inhibition of sporulation/recombination, active = hit call of the paper
Structures can show the parent of a compound that is named as a salt.
Respond with T for HIS4 meiotic recombination assay sensitivity score values of -0.5 and above, F for values below.

* CO[C@H]1/C=C/O[C@@]2(C)Oc3c(C)c(O)c4c(O)c(c(/C=N/N5CCN(C6CCCC6)CC5)c(O)c4c3C2=O)NC(=O)/C(C)=C\C=C\[C@H](C)[C@H](O)[C@@H](C)[C@@H](O)[C@@H](C)[C@H](OC(C)=O)[C@@H]1C [Rifapentine] (stock concentration (mM, diluted 1:100): 10) | F
* C[C@]12CCC(=O)C=C1CC[C@@H]1[C@@H]2CC[C@@]2(C)[C@H]1CC[C@]2(O)C(=O)CO [Cortodoxone] (stock concentration (mM, diluted 1:100): 10) | T
* OCCN1C[C@H](O)[C@@H](O)[C@H](O)[C@H]1CO [Miglitol] (stock concentration (mM, diluted 1:100): 10) | F
* Cc1ccnc2c1NC(=O)c1cccnc1N2C1CC1 [Viramune] (stock concentration (mM, diluted 1:100): 10) | T
* CN1CCN(CCCN2c3ccccc3Sc3ccc(Cl)cc32)CC1 [Prochlorperazine] (stock concentration (mM, diluted 1:100): 10.4) | F
* Clc1cccc(Cl)c1NC1=NCCN1 [Clonidine] (stock concentration (mM, diluted 1:100): 10) | T
* CC#C[C@]1(O)CC[C@H]2[C@@H]3CCC4=CC(=O)CCC4=C3[C@@H](c3ccc(N(C)C)cc3)C[C@@]21C [Mifepristone] (stock concentration (mM, diluted 1:100): 10) | T
* CC[C@H](C)C(=O)O[C@H]1C[C@H](O)C=C2C=C[C@H](C)[C@H](CC[C@@H](O)C[C@@H](O)CC(=O)O)[C@H]21 [Pravastatin sodium] (stock concentration (mM, diluted 1:100): 9.5) | T
* CN[C@H]1CC[C@@H](c2ccc(Cl)c(Cl)c2)c2ccccc21 [Sertraline] (stock concentration (mM, diluted 1:100): 9) | F
* CC(Oc1c(Cl)cccc1Cl)C1=NCCN1 (stereo unspecified) [Lofexidine hydrochloride] (stock concentration (mM, diluted 1:100): 10) | T
* Nc1c2c(nc3c1CCC3)CCCC2 [Amiridine] (stock concentration (mM, diluted 1:100): 10) | T
